# assayName: self-splicing fitness, log relative to wild type (ln ratio); higher = more splicing; Tetrahymena group I intron in knt gene, E. coli kanamycin selection, DiMSum; sequences stand for … in CUCUCU…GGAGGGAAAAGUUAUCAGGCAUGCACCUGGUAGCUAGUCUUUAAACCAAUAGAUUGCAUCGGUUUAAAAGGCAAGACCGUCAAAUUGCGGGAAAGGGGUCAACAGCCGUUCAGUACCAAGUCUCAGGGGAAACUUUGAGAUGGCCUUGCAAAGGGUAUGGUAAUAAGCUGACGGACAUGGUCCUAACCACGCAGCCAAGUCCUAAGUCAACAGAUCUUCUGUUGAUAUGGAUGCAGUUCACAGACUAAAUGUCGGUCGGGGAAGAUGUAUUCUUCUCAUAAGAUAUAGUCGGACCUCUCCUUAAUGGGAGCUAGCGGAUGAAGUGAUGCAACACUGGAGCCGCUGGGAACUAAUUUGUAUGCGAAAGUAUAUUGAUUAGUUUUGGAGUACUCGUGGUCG;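 further: selection with 25 µg/mL kanamycin versus none on LB agar overnight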
# experimentalSetup: 30 °C
testReadout: self-splicing fitness (ln)

> print(dat)
            sequencecode  resultnumber
 1  GACCAGCAAUAUUACGUGUG        -0.363
 2  ACAUAGCAAUAUUACGACAU        -0.718
 3  UGAGAGCAAUAUUACGCAGA          -3.1
 4  UUGAAGCAAUAUUACGGUGG         -0.88
 5  CAAGAGCAAUAUUACGGGCA         -2.96
 6  ACAUAGCAAUAUUACGGCAA         -0.85
 7  ACUAAGCAAUAUUACGGAAG         -2.59
 8  CGCUAGCAAUAUUACGCGUU         -1.99
 9  UUCCAGCAAUAUUACGUGCU          -4.4
10  CCUUAGCAAUAUUACGUUGC         -3.68
11  AGUAAGCAAUAUUACGGUCC        -0.766
12  UCGUAGCAAUAUUACGGGAU         -4.41
13  CGGCAGCAAUAUUACGGAUU          -3.9
14  GUACAGCAAUAUUACGUGAG         -1.42
15  GUCAAGCAAUAUUACGAGCG         -2.72
16  CUCAAGCAAUAUUACGAGCG            -3

All figures here come from the supplement of paper PMC7877785.
